Measurement Notes: physchem
Setup Conditions: HPLC, Ascentis Express RP Amide column, pH 7.4, eLogD, experimental
I'd appreciate it if you marked entries 1.0 when chromatographic logD is lower than 4 and 0.0 when it is not.

Compound	Class Label
O=S1(=O)c2cc(F)ccc2OCC(c2ccc(F)cc2)N1Cc1ccccc1 (stereo not drawn) [DNDI0003389122]	0.0
COCCN(Cc1ccccc1)S(=O)(=O)c1c(OC)ccc(Cl)c1S(C)(=O)=O [DNDI0003578381]	1.0
C[S+]([O-])c1c(Cl)ccc2c1S(=O)(=O)N(Cc1ccccc1)CCO2 (stereo not drawn) [DNDI0003578383]	1.0
N#Cc1ccccc1S(=O)(=O)N(Cc1ccccc1)Cc1ccccc1 [DNDI0003389641]	0.0
O=S(=O)(c1cc(N2CCOCC2)ccc1OC(F)F)N(Cc1ccc(F)cc1)Cc1ccc(F)cc1 [DNDI0003389647]	0.0
COc1ccc(OC)c(S(=O)(=O)N(Cc2ccc(F)cc2)C2CCOCC2)c1 [DNDI0003388086]	1.0
O=S(=O)(NCc1ccc(F)cc1)c1cccnc1NCCN1CCOCC1 [DNDI0003369121]	1.0
CCCCOc1ncccc1S(=O)(=O)NCc1ccc(F)cc1 [DNDI0003368396]	1.0
O=S(=O)(NC(CO)Cc1ccccc1)c1ccccc1Br (stereo not drawn) [DNDI0003369449]	1.0
O=c1[nH]cccc1S(=O)(=O)N(Cc1ccc(F)cc1)Cc1ccc(F)cc1 [DNDI0003371165]	1.0
Nc1ncccc1S(=O)(=O)N(Cc1ccc(F)cc1)Cc1ccc(F)cc1 [DNDI0003371163]	0.0
COc1ccc([S+](C)[O-])cc1S(=O)(=O)N(Cc1ccccc1)Cc1ccccc1 (stereo not drawn) [DNDI0003578382]	1.0
CN(C)CCN(Cc1ccccc1)S(=O)(=O)c1ccccc1S(C)(=O)=O [DNDI0003367255]	1.0
COc1ccc(Cl)cc1S(=O)(=O)N(Cc1ccccc1)C1COC(=O)OC1 [DNDI0003392146]	1.0
COc1ccc(S(N)(=O)=O)cc1S(=O)(=O)N(Cc1ccccc1)Cc1ccccc1 [DNDI0003578385]	1.0
COc1ccc(C(=O)N2CCN(C)CC2)cc1S(=O)(=O)N(Cc1ccc(F)cc1)Cc1ccc(F)cc1 [DNDI0003371173]	0.0
CCOCCOc1ncccc1S(=O)(=O)NCc1ccc(F)cc1 [DNDI0003369119]	1.0
COc1ccc(OC)c(S(=O)(=O)N(CCN2CCOCC2)Cc2ccccc2)c1 [DNDI0003368294]	1.0
O=S(=O)(NC(CO)Cc1ccccc1)c1cc(F)ccc1F (stereo not drawn) [DNDI0003368459]	1.0
COc1ccc(OC)c(S(=O)(=O)N(Cc2ccc(F)cc2)Cc2ccccn2)c1 [DNDI0003368394]	1.0
Cn1cccc(S(=O)(=O)N(Cc2ccc(F)cc2)Cc2ccc(F)cc2)c1=O [DNDI0003371168]	1.0
COc1ccc(S(C)(=O)=O)cc1S(=O)(=O)N(Cc1ccccc1)Cc1cc(C(F)(F)F)nn1C [DNDI0003578374]	1.0
COCCN(Cc1ccccc1)S(=O)(=O)c1ccccc1OC(F)(F)F [DNDI0003392130]	1.0
COc1ccc(C#N)cc1S(=O)(=O)N(Cc1ccc(F)cc1)Cc1oc(C)nc1C [DNDI0003370421]	1.0
COc1ccc(C(=O)N(C)CCO)cc1S(=O)(=O)N(Cc1ccc(F)cc1)Cc1ccc(F)cc1 [DNDI0003371175]	1.0
COc1ncccc1S(=O)(=O)N(Cc1ccc(F)cc1)Cc1ccc(F)cc1 [DNDI0003371169]	0.0
COc1ncc(C#N)cc1S(=O)(=O)N(Cc1ccc(F)cc1)Cc1ccc(F)cc1 [DNDI0003369123]	0.0
CNCCOc1ccc(F)cc1S(=O)(=O)N(Cc1ccc(F)cc1)Cc1ccc(F)cc1 [DNDI0003389318]	0.0
COc1ccc(C(=O)N2CCOCC2)cc1S(=O)(=O)N(Cc1ccccc1)Cc1cnc(C(F)(F)F)nc1 [DNDI0003425509]	1.0
O=C(CN(Cc1ccccc1)S(=O)(=O)c1cc(F)ccc1F)c1ccc(F)cc1 [DNDI0003371157]	0.0

###

The following molecules are listed with their measured CC50 at 3 days values.
Measurement Notes: in vitro
Setup Conditions: human

Query Smiles	CC50 at 3 days
N#Cc1ccc(O)c(S(=O)(=O)N(Cc2ccc(F)cc2)Cc2ccc(F)cc2)c1	4 µM
COc1ccc(OC)c(S(=O)(=O)N(Cc2ccc(F)cc2)Cc2ccc(C#N)cc2)c1	> 64 µM
Nc1ncccc1S(=O)(=O)N(Cc1ccc(F)cc1)Cc1ccc(F)cc1	> 64 µM
CCCCCOc1cc(C)c(Cl)cc1S(=O)(=O)NCc1cccs1	44.1 µM
O=S(=O)(NCc1ccc(F)cc1)c1cccnc1OCc1ccccc1	20.2 µM
COc1ccc(C#N)cc1S(=O)(=O)N(Cc1ccc(F)cc1)C1CCOCC1	> 64 µM
CNc1ncccc1S(=O)(=O)N(Cc1ccc(F)cc1)Cc1ccc(F)cc1	> 64 µM
O=c1[nH]cccc1S(=O)(=O)N(Cc1ccc(F)cc1)Cc1ccc(F)cc1	> 64 µM

###

Test system: primary peritoneal mouse macrophages (PMM)
Measurement Notes: Cytotoxicity to PMM (microscopic scoring within susceptibility assay)
pIC50: −log10 of the molar value.
The following molecules are listed with their measured pIC50 values.
Measured Endpoint: pIC50

Query Smiles	Measured Endpoint	Result
CN(C)S(=O)(=O)c1cccc(NC(=O)CN2CCCc3ccccc32)c1	pIC50	< 4.49
CCN(CC)S(=O)(=O)c1ccc(OC)c(NC(=O)CN(C)c2ccccc2)c1	pIC50	< 4.49
COc1ccc(S(=O)(=O)N(C)C)cc1NC(=O)Cn1c(=O)oc2ccccc21	pIC50	< 4.49
CCCCOc1cc(C)c(C(C)C)cc1S(=O)(=O)NC1CCCCC1	pIC50	4.80
COc1cc(C)c(C)cc1S(=O)(=O)NC1CCCCC1	pIC50	< 4.49
CCOc1cc(S(=O)(=O)N(Cc2ccccc2)Cc2ccccc2)c(OCC)cc1C	pIC50	< 4.49
COc1cc(S(=O)(=O)N2CCN(Cc3ccccc3)CC2)c(OC)cc1C	pIC50	< 4.49
CCN(Cc1ccccc1)S(=O)(=O)c1cc(OC)c(C)cc1OC	pIC50	< 4.49

###

Measurement Notes: in vitro
Setup Conditions: mouse, microsomes, pH 7.4, MLM CLint, mouse liver microsomes

Compound	Result Units	microsomal CLint at 0.5 μM
CCCCCOc1cc(C)c(C)cc1S(=O)(=O)NC1CCCC1	µL/min/mg	416
COc1ccc(OC)c(S(=O)(=O)N(Cc2ccccc2)C2CCCNC2)c1 (centres unmarked)	µL/min/mg	96
O=C(CN(Cc1ccccc1)S(=O)(=O)c1cc(F)ccc1F)c1ccc(F)cc1	µL/min/mg	1380
O=S(=O)(c1cccnc1OC(F)F)N(Cc1ccc(F)cc1)Cc1ccc(F)cc1	µL/min/mg	3070
O=S1(=O)c2cc(F)ccc2OC(c2ccc(F)cc2)CN1Cc1ccccc1 (centres unmarked)	µL/min/mg	323

###

The following compounds are listed with their measured Papp values.
Measurement Notes: in vitro
Setup Conditions: PAMPA
Measured Endpoint: Papp

Compound	Result
COc1ccc(C(=O)N2CCOCC2)cc1S(=O)(=O)N(Cc1ccc(F)cc1)Cc1ccc(F)cc1	9.35 ×10⁻⁶ cm/s
O=S(=O)(c1cccnc1N1CCOCC1)N(Cc1ccc(F)cc1)Cc1ccc(F)cc1	3.63 ×10⁻⁶ cm/s
COc1ccc(-c2nc(C)no2)cc1S(=O)(=O)N(Cc1ccc(F)cc1)Cc1ccc(F)cc1	1.74 ×10⁻⁶ cm/s
COc1ccc(Cl)cc1S(=O)(=O)N(Cc1ccccc1)CC(N)c1ccc(F)cc1 (stereo not shown)	0.59 ×10⁻⁶ cm/s

###

Measurement Notes: in vitro
Setup Conditions: human, microsomes, pH 7.4, Microsome Clint Human, intrinsic in vitro clearance, liver microsomes
The following compounds are listed with their measured microsomal CLint at 0.5 h, 0.5 µM values.

Query Smiles	Result Units	microsomal CLint at 0.5 h, 0.5 µM
O=S(=O)(c1ccccc1OC(F)(F)F)N(Cc1ccccc1)Cc1ccccc1	µL/min/mg	92.9
COc1ccc(CN2CCOCC2)cc1S(=O)(=O)N(Cc1ccc(F)cc1)Cc1ccc(F)cc1	µL/min/mg	49.4
COc1ccc(N2CCOCC2)cc1S(=O)(=O)N(Cc1ccc(F)cc1)Cc1ccc(F)cc1	µL/min/mg	421
Cn1cccc(S(=O)(=O)N(Cc2ccc(F)cc2)Cc2ccc(F)cc2)c1=O	µL/min/mg	676

###

Measurement Notes: in vitro
Setup Conditions: plasma, PPB (%)
Measured Endpoint: fraction unbound

Molecule	Quantitative Readout
COc1ccc(C(=O)N2CCOCC2)cc1S(=O)(=O)N(Cc1ccc(F)cc1)Cc1ccc(C(F)(F)F)nc1 [DNDI0003389644]	0.0409
COc1ccc(C(=O)N2CCOCC2)cc1S(=O)(=O)N(Cc1ccccc1)Cc1cnc(C(F)(F)F)nc1 [DNDI0003425509]	0.117

The values you see were collected from paper PMC8126888.
